Biological target: HLA-B0801 (human)
Test: competition vs 125I probe peptide, purified HLA
Conditions: remark: other sources report otherwise
readout-type: Ki (nM)
Reply with just the number (in nM).

Input: Recorded Ki for EARQAIRSL (modifications not checked) […] , please?
Output: 9
